Listed here: items and their measured inhibition at 200 µg/mL.
tested on: Tobacco mosaic virus; experiment: Antiviral activity against Tobacco mosaic virus (TMV) assessed as inhibition of viral replication at 0.2 mg/ml after 48 hr by leaf disk method relative to control; assay type: functional

COMPOUND	SUBJECT OF TEST	inhibition at 200 µg/mL, %
CC1=C(C)[C@H]2C3=CC[C@@H]4[C@@]5(C)CC[C@H](O)[C@@](C)(CO)[C@@H]5CC[C@@]4(C)[C@]3(C)CC[C@@]2(C(=O)O[C@@H]2O[C@H](CO)[C@@H](O)[C@H](O)[C@H]2O)CC1	Tobacco mosaic virus	41.1
C=C1CC[C@]2(C(=O)O[C@@H]3O[C@H](CO)[C@@H](O)[C@H](O)[C@H]3O)CC[C@]3(C)C(=CC[C@@H]4[C@@]5(C)CC[C@H](O)[C@@](C)(CO)[C@@H]5CC[C@]43C)C2[C@]1(C)O (stereo partly drawn) [Oblonganoside E]	Tobacco mosaic virus	21.5
C=C1C2C3=CC[C@@H]4[C@@]5(C)CC[C@H](O[C@@H]6OC[C@@H](O)[C@H](O)[C@H]6O)C(C)(C)[C@@H]5CC[C@@]4(C)[C@]3(C)CC[C@@]2(C(=O)O[C@@H]2O[C@H](CO)[C@@H](O)[C@H](O)[C@H]2O)CC[C@H]1C (stereo partly drawn) [OBLONGANOSIDE D]	Tobacco mosaic virus	37.7
